Study target: Serine/threonine-protein kinase SIK1 (Homo sapiens) (UniProt P57059)
Sequence (P57059 whole entry): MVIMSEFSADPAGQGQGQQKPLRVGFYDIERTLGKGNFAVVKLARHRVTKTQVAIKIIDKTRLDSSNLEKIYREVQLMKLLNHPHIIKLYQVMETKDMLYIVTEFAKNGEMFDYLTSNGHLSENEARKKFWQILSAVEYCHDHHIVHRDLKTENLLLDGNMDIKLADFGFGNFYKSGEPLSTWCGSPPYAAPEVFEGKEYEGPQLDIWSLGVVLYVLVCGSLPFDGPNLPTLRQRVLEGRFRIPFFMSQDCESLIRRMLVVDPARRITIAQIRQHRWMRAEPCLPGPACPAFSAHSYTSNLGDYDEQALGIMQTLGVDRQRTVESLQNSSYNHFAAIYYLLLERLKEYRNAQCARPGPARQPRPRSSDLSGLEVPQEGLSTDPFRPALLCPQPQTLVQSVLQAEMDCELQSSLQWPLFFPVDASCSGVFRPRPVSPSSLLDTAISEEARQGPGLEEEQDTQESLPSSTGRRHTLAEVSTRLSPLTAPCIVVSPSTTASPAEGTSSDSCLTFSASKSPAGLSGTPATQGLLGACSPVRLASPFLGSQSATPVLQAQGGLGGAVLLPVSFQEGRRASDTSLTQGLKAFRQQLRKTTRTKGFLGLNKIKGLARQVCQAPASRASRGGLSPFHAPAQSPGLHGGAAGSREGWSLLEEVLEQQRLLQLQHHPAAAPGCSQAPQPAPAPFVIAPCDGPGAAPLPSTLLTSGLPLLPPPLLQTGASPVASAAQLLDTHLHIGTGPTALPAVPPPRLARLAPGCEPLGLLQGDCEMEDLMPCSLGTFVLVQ
Cond: at 10 µM
Observation type: residual activity (%)

[
  {
    "Smiles record": "CO[C@H]1C[C@@H]2CC[C@@H](C)[C@@](O)(O2)C(=O)C(=O)N2CCCC[C@H]2C(=O)O[C@H]([C@H](C)C[C@@H]2CC[C@@H](O)[C@H](OC)C2)CC(=O)[C@H](C)/C=C(\\C)[C@@H](O)[C@@H](OC)C(=O)[C@H](C)C[C@H](C)/C=C/C=C/C=C/1C",
    "Study target": "Serine/threonine-protein kinase SIK1 (Homo sapiens) (UniProt P57059)",
    "Unit of measure": "%",
    "Assay value": 81
  },
  {
    "Smiles record": "O=C(O)c1ccc2c3c1cccc3c(=O)n1c3ccccc3nc21",
    "Study target": "Serine/threonine-protein kinase SIK1 (Homo sapiens) (UniProt P57059)",
    "Unit of measure": "%",
    "Assay value": 83
  },
  {
    "Smiles record": "CC(C)n1cnc2/c(=N/c3cccc(Cl)c3)nc(NCCO)[nH]c21",
    "Study target": "Serine/threonine-protein kinase SIK1 (Homo sapiens) (UniProt P57059)",
    "Unit of measure": "%",
    "Assay value": 28
  },
  {
    "Smiles record": "O=C1NC(=O)/C(=C/c2ccc3c(c2)OC(F)(F)O3)S1",
    "Study target": "Serine/threonine-protein kinase SIK1 (Homo sapiens) (UniProt P57059)",
    "Unit of measure": "%",
    "Assay value": 119
  },
  {
    "Smiles record": "CC#CC(=O)Nc1cc2c(Nc3ccc(F)c(Cl)c3)ncnc2cn1",
    "Study target": "Serine/threonine-protein kinase SIK1 (Homo sapiens) (UniProt P57059)",
    "Unit of measure": "%",
    "Assay value": 77
  }
]

* * *

Study target: Protein kinase C theta type (Homo sapiens) (UniProt Q04759)
Sequence (Q04759 whole entry, looked up): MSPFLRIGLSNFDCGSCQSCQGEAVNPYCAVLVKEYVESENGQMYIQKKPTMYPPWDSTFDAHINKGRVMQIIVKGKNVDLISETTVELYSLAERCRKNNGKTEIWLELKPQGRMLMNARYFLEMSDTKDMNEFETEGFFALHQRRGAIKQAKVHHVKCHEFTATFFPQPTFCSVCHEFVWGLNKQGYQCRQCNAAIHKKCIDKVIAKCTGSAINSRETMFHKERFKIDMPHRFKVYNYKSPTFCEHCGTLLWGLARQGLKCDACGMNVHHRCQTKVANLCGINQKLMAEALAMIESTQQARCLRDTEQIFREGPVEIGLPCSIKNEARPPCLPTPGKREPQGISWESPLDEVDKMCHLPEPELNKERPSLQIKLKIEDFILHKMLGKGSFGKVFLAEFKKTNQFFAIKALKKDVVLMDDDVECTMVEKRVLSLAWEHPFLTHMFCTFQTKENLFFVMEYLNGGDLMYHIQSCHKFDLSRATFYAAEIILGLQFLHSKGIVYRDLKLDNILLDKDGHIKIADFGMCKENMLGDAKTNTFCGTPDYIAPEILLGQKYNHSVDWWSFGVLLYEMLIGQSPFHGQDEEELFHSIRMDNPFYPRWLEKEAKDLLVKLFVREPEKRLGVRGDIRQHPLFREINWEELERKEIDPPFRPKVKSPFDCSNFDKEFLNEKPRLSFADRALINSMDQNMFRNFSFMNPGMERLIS
Cond: at 10 µM
Measured residual activity accompanies every entry in the list below.
Observation type: residual activity (%)

[
  {
    "Smiles record": "Cc1cc2ncc(-c3ccccc3)nc2cc1C",
    "Unit of measure": "%",
    "Assay value": 102
  },
  {
    "Smiles record": "COc1ccc(C(=O)Nc2sc3c(c2C(N)=O)CCCC3)cc1OC",
    "Unit of measure": "%",
    "Assay value": 84
  },
  {
    "Smiles record": "O=C1c2ccccc2-[n+]2ccc3c([nH]c4ccccc43)c21",
    "Unit of measure": "%",
    "Assay value": 99
  },
  {
    "Smiles record": "CC[n+]1c(/C=C/N(C)c2ccccc2)n(-c2ccccc2)c2ccc(-c3nc4ccccc4s3)cc21",
    "Unit of measure": "%",
    "Assay value": 84
  },
  {
    "Smiles record": "COc1cc2ncnc(Nc3ccc(Oc4ccccc4)cc3)c2cc1OC",
    "Unit of measure": "%",
    "Assay value": 112
  },
  {
    "Smiles record": "CCN(CC)C(=O)c1ccc(Nc2nc(OCC3CCCCC3)c3nc[nH]c3n2)cc1",
    "Unit of measure": "%",
    "Assay value": 39
  },
  {
    "Smiles record": "COc1cccc(-c2cc(=O)c3ccccc3o2)c1N",
    "Unit of measure": "%",
    "Assay value": 97
  },
  {
    "Smiles record": "O=C1NC(=O)c2c1c1c3ccccc3[nH]c1c1[nH]c3cc(Br)ccc3c21",
    "Unit of measure": "%",
    "Assay value": 91
  },
  {
    "Smiles record": "Cc1nc(-c2ccccc2)c(-c2ccncc2)o1",
    "Unit of measure": "%",
    "Assay value": 103
  },
  {
    "Smiles record": "CN(C)c1ccc(/C=C2\\C(=O)Nc3ccccc32)cc1",
    "Unit of measure": "%",
    "Assay value": 85
  }
]

* * *

Study target: 3-phosphoinositide-dependent protein kinase 1 (Homo sapiens) (UniProt O15530)
Sequence (whole entry): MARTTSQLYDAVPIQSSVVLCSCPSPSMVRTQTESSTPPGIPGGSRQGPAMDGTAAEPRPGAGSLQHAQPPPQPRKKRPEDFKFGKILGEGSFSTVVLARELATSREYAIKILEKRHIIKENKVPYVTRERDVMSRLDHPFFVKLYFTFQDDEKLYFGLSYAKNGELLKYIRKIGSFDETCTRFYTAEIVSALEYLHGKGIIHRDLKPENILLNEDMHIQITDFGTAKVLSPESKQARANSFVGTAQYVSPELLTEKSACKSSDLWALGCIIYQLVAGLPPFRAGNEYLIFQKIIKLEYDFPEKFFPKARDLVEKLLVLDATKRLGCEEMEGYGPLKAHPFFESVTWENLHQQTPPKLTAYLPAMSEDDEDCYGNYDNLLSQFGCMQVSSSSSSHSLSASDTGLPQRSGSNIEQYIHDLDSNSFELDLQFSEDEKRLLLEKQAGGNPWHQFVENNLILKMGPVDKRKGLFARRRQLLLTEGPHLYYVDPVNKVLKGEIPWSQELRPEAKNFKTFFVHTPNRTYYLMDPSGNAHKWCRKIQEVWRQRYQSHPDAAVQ
Cond: at 1 µM
Measured residual activity accompanies every entry in the list below.
Observation type: residual activity (%)

[
  {
    "Smiles record": "COc1ccc(OC)c2c(=S)c3ccccc3[nH]c12",
    "Assay value": 96
  },
  {
    "Smiles record": "CC#CC(=O)Nc1cc2c(Nc3ccc(F)c(Cl)c3)ncnc2cn1",
    "Assay value": 102
  },
  {
    "Smiles record": "c1ccc2c(-c3ccncc3)c[nH]c2c1",
    "Assay value": 111
  },
  {
    "Smiles record": "Nc1nc(Nc2ccc(S(N)(=O)=O)cc2)nn1C(=S)Nc1c(F)cccc1F",
    "Assay value": 3
  },
  {
    "Smiles record": "Nc1n[nH]c2nnc(-c3c(-c4ccccc4)nn4ccccc34)cc12",
    "Assay value": 102
  },
  {
    "Smiles record": "COc1cc2ncnc(Nc3ccc(O)c(Br)c3)c2cc1OC",
    "Assay value": 97
  },
  {
    "Smiles record": "Nc1ccc2ncnc(NCCc3ccc(Oc4ccccc4)cc3)c2c1",
    "Assay value": 104
  },
  {
    "Smiles record": "COc1cc2ncnc(Nc3ccc(Oc4ccccc4)cc3)c2cc1OC",
    "Assay value": 109
  },
  {
    "Smiles record": "Oc1c2ccccc2c2c3c(cccc13)N=N2",
    "Assay value": 72
  },
  {
    "Smiles record": "CCN(CC)C(=O)c1ccc(Nc2nc(OCC3CCCCC3)c3nc[nH]c3n2)cc1",
    "Assay value": 20
  },
  {
    "Smiles record": "O=C1NC(=O)/C(=C/c2ccc3c(c2)OC(F)(F)O3)S1",
    "Assay value": 108
  },
  {
    "Smiles record": "O=C(O)c1ccc2c3c1cccc3c(=O)n1c3ccccc3nc21",
    "Assay value": 108
  }
]

* * *

Study target: Rho-associated protein kinase 2 (Homo sapiens)
Cond: at 10 µM
Answer label 0 if residual activity is under 80%, and label 1 if it is 80% or more.

[
  {
    "Smiles record": "CCN(CC)CCCCN1c2ccccc2Oc2ccc(Cl)cc21",
    "Label class": "label 1"
  },
  {
    "Smiles record": "Cc1nc2cc3nc(-c4cccs4)cnc3cc2n1C",
    "Label class": "label 1"
  },
  {
    "Smiles record": "COc1ccc(OC)c2c(=S)c3ccccc3[nH]c12",
    "Label class": "label 1"
  },
  {
    "Smiles record": "Cn1nc2c3c(cccc31)C(=O)c1ccccc1-2",
    "Label class": "label 1"
  },
  {
    "Smiles record": "Cc1cc2ncc(-c3ccccc3)nc2cc1C",
    "Label class": "label 1"
  },
  {
    "Smiles record": "c1ccc2c(-c3ccncc3)c[nH]c2c1",
    "Label class": "label 0"
  },
  {
    "Smiles record": "O=c1c2ccccc2[nH]c(=S)n1CCN1CCC(=C(c2ccc(F)cc2)c2ccc(F)cc2)CC1",
    "Label class": "label 1"
  },
  {
    "Smiles record": "CC(C)n1cnc2/c(=N/c3cccc(Cl)c3)nc(NCCO)[nH]c21",
    "Label class": "label 0"
  },
  {
    "Smiles record": "COc1ccc(CNc2nc(N(CCO)CCO)nc3c2ncn3C(C)C)cc1",
    "Label class": "label 1"
  },
  {
    "Smiles record": "Oc1n[nH]c2nnc(-c3c(-c4ccccc4)nn4ccccc34)cc12",
    "Label class": "label 1"
  },
  {
    "Smiles record": "O=c1cc(-c2cccc3c2Sc2ccccc2S3)oc(N2CCOCC2)c1",
    "Label class": "label 1"
  },
  {
    "Smiles record": "N#Cc1cnc2cnc(NCc3cccnc3)cc2c1Nc1ccc(F)c(Cl)c1",
    "Label class": "label 0"
  },
  {
    "Smiles record": "CC[n+]1c(/C=C/N(C)c2ccccc2)n(-c2ccccc2)c2ccc(-c3nc4ccccc4s3)cc21",
    "Label class": "label 1"
  },
  {
    "Smiles record": "CC#CC(=O)Nc1cc2c(Nc3ccc(F)c(Cl)c3)ncnc2cn1",
    "Label class": "label 0"
  },
  {
    "Smiles record": "O=C(Nc1cccc(Nc2nccc(Nc3cccc(C(F)(F)F)c3)n2)c1)C1CC1",
    "Label class": "label 1"
  },
  {
    "Smiles record": "Cc1nc(-c2ccccc2)c(-c2ccncc2)o1",
    "Label class": "label 0"
  },
  {
    "Smiles record": "CCOc1cc2ncnc(Nc3cccc(Br)c3)c2cc1OCC",
    "Label class": "label 0"
  },
  {
    "Smiles record": "C[C@@H](N)[C@H]1CC[C@H](C(=O)Nc2ccncc2)CC1",
    "Label class": "label 0"
  },
  {
    "Smiles record": "O=C1NC(=O)c2c1c1c3ccccc3[nH]c1c1[nH]c3cc(Br)ccc3c21",
    "Label class": "label 1"
  },
  {
    "Smiles record": "N#C/C(=C(\\N)Sc1ccc(N)cc1)c1ccccc1C(F)(F)F",
    "Label class": "label 1"
  },
  {
    "Smiles record": "COc1cc2ncnc(N3CCN(C(=O)Nc4ccc(Oc5ccccc5)cc4)CC3)c2cc1OC",
    "Label class": "label 1"
  },
  {
    "Smiles record": "CO[C@@H]1[C@H](N(C)C(=O)c2ccccc2)C[C@H]2O[C@]1(C)n1c3ccccc3c3c4c(c5c6ccccc6n2c5c31)C(=O)NC4",
    "Label class": "label 0"
  },
  {
    "Smiles record": "CCC(=O)Nc1ccc2ncnc(Nc3cccc(Br)c3)c2c1",
    "Label class": "label 1"
  },
  {
    "Smiles record": "Cc1cc(Nc2nc(-c3ccccc3)nc3ccccc23)n[nH]1",
    "Label class": "label 1"
  },
  {
    "Smiles record": "Nc1n[nH]c2nnc(-c3c(-c4ccccc4)nn4ccccc34)cc12",
    "Label class": "label 1"
  },
  {
    "Smiles record": "COc1cc2ncnc(Nc3ccc(Oc4ccccc4)cc3)c2cc1OC",
    "Label class": "label 1"
  },
  {
    "Smiles record": "c1ccc(-c2n[nH]cc2-c2ccnc3ccccc23)nc1",
    "Label class": "label 0"
  },
  {
    "Smiles record": "Oc1c2ccccc2c2c3c(cccc13)N=N2",
    "Label class": "label 0"
  },
  {
    "Smiles record": "CCN(CC)C(=O)c1ccc(Nc2nc(OCC3CCCCC3)c3nc[nH]c3n2)cc1",
    "Label class": "label 0"
  },
  {
    "Smiles record": "CN(C)CCCn1cc(C2=C(c3c[nH]c4ccccc34)C(=O)NC2=O)c2ccccc21",
    "Label class": "label 1"
  },
  {
    "Smiles record": "CO[C@H]1C[C@@H]2CC[C@@H](C)[C@@](O)(O2)C(=O)C(=O)N2CCCC[C@H]2C(=O)O[C@H]([C@H](C)C[C@@H]2CC[C@@H](O)[C@H](OC)C2)CC(=O)[C@H](C)/C=C(\\C)[C@@H](O)[C@@H](OC)C(=O)[C@H](C)C[C@H](C)/C=C/C=C/C=C/1C",
    "Label class": "label 1"
  }
]
